molecular target: Solute carrier family 2, facilitated glucose transporter member 1 (Homo sapiens); assay: ST_JUDE_LEISH: Cytotoxicity at 2uM final concentration against transgenic Leishmania Mexicana promastigotes LmGLUT1 that are glucose transport deficient and complemented with the human glucose transporter GLUT1. Activity is measured by DNA content using SYBR green in vitro; assay type: functional
# if value of inhibition reaches 4%, tag met; if it stays below, tag not met

Enquiry: Assess whether reported inhibition for Cc1cc(N[C@@H](Cc2ccccc2)C(=O)NCc2cccc(F)c2)nc(Nc2ccccc2)n1 sits at 4% or higher.
Return: met

Enquiry: Assess whether reported inhibition for CCN(CC(C)O)C(=O)c1ccc(-c2cccc(-c3nc4cccc(C)c4[nH]3)c2)cc1 (centres undefined) sits at 4% or higher.
Return: not met

Enquiry: Assess whether reported inhibition for COc1ccc2ccccc2c1CCCCN1CCN(CC(c2ccc(F)cc2)N2CCN(C3CCCC3)CC2)CC1 (centres undefined) sits at 4% or higher.
Return: not met

Enquiry: Assess whether reported inhibition for Cn1nc(-c2ccc(NC(=O)Nc3cc(C(F)(F)F)ccc3F)cc2)c2cnc(NCCCCN3CCCC3)nc21 sits at 4% or higher.
Return: not met
